# ASSAY TEXT: Human HepG2 cell viability assay in 384 well format
# Format: toxicity, cell-based
# Design: dose 125 nL, time 70.5 hour; concentration not given beside the values
# RECORDED CONDITIONS: HepG2 cells, read-out: Inhibition
Provide the recorded cytotoxicity at 70.5 h for the entries that follow.

Task: Recorded cytotoxicity at 70.5 h of CN(Cc1cc(C2CC2)on1)C(=O)C(c1cccnc1)N1CCCC1 (stereo unspecified) , please.
Output: -1.03%

Task: Item: O=S(=O)(NCc1ccccc1Cn1cncn1)N1CCCCC1
Output: -10.7%

Task: Same thing, different molecule: Cc1cc(CC(C)NC2CCSCC2)[nH]n1 (stereo unspecified)
Output: -5.1%

Task: // repeat for c1ccc2c(OCCN3CCn4c(nnc4C4CC4)C3)cccc2c1 and report
Output: 2.06%

Task: Similarly, COc1cc(N2C[C@H]3CN(C(=O)c4cnccn4)C[C@H]3C2)ncn1 ?
Output: -2.87%

Task: Try this molecule too: Cn1cc(CN2C[C@@H]3COC[C@]3(C(=O)N3CCCO3)C2)cn1
Output: -1.04%
